system: C. striatum ATCC-6940; experiment: MIC, broth microdilution, C. striatum ATCC-6940; assay type: cell-based; settings: C. striatum ATCC-6940, Gram +ve; pH 3; 18 to 24 hours
Please go through the items and note down their MIC.
// no unit string in output, number only

Exercise: Dear colleague, I am looking for the recorded MIC of the following molecule: CCCCOP(=O)(O)OC[C@@H]1CC[C@H](n2ccc(N)nc2=O)O1
Key: 1.56

Exercise: Dear colleague, I am looking for the recorded MIC of the following molecule: CCCCOP(=O)(O)OC[C@H]1O[C@@H](n2ccc(N(C)C)nc2=O)C[C@@H]1O
Key: 3.12

Exercise: Dear colleague, I am looking for the recorded MIC of the following molecule: CCCCOP(=O)(O)OC[C@H]1O[C@@H](n2ccc(N)nc2=O)C(F)(F)[C@@H]1O
Key: 0.78

Exercise: Dear colleague, I am looking for the recorded MIC of the following molecule: CCCCOP(=O)(O)OC[C@H]1O[C@@H](n2ccc(N(C)C)nc2=O)C(F)(F)[C@@H]1O
Key: 1.56

Exercise: Dear colleague, I am looking for the recorded MIC of the following molecule: CCCCOP(=O)(O)OC[C@H]1O[C@@H](n2ccc(N(C)C)nc2=O)[C@H](OC)[C@@H]1O
Key: 0.78
